biological target: IDH1 R132C (Homo sapiens, UniProt O75874, R132C); assay: Effect on IDH1 R132C enzyme activity (NADPH consumption, diaphorase/resazurin fluorescence); conditions: 80 ng IDH1 R132C, α-KG 2 mM, NADPH 20 μM, 60 min preincubation
Sequence (O75874 whole entry R132C): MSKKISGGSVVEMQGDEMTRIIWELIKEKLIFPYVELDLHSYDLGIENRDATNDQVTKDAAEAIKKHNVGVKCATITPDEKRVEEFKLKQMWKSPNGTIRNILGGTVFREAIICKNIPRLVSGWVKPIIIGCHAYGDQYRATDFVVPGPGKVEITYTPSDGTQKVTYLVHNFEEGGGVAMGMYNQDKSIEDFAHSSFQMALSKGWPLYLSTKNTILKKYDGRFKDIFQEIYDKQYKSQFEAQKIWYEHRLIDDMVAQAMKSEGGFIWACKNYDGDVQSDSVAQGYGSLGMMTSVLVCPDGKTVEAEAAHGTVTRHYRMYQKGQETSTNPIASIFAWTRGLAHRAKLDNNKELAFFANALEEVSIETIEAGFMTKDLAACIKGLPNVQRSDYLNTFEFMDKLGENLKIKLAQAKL
Quantity: IC50

Consider the reported IC50 for these compounds:
Compound	Measured Target	IC50
C[C@H](Nc1nccc(N2CC3(CC3)OC2=O)n1)c1ncn2c1CCc1cc(C(F)(F)F)ccc1-2	IDH1 R132C (Homo sapiens, UniProt O75874, R132C)	> 500 nM
C[C@H](Nc1nccc(N2C(=O)OC[C@@H]2[C@H](C)F)n1)c1ncn2c1sc1cc(C(F)(F)F)ccc12	IDH1 R132C (Homo sapiens, UniProt O75874, R132C)	< 50 nM

In: Report IC50 for CC1Cc2cc(C(F)(F)F)ccc2-n2cnc([C@H](C)Nc3nccc(N4C(=O)OC[C@@H]4[C@H](C)F)n3)c21 (some centres unmarked) please.
Out: 50 to 500 nM

In: Any idea what its IC50 is? The compound is C[C@H](Nc1nccc(N2C(=O)OC[C@@H]2[C@H](C)F)n1)c1ncn2c1COc1cc(C#N)ccc1-2
Out: 50 to 500 nM

In: Which IC50 is listed for CC(C)[C@H]1COC(=O)N1c1ccnc(N[C@@H](C)c2ncn3c2CCCc2cc(C(F)(F)F)ccc2-3)n1 ?
Out: < 50 nM

In: May I ask what IC50 has been recorded for C[C@H](Nc1nccc(N2C(=O)OC[C@@H]2c2ccccc2)n1)c1ncn2c1CCc1cc(C(F)(F)F)ccc1-2 ?
Out: < 50 nM

In: Give its IC50 value. Item: CC(C)[C@@H]1N(c2ccnc(N[C@@H](C)c3ncn4c3CCc3cc(C(F)(F)F)ccc3-4)n2)C(=O)OC1(C)C
Out: < 50 nM

In: State the recorded IC50 for this entry: C[C@H](Nc1nccc(N2C(=O)OC[C@@H]2[C@H](C)F)n1)c1ncn2c1COc1cc(F)ccc1-2
Out: < 50 nM

In: I would be grateful if you could share the reported IC50 for CC(C)[C@H]1C(C)OC(=O)N1c1ccnc(N[C@@H](C)c2ncn3c2CCc2cc(C(F)(F)F)ccc2-3)n1 (some centres unmarked) .
Out: < 50 nM

In: // lookup IC50 for C[C@H](Nc1nccc(N2C(=O)OC[C@@H]2[C@H](C)F)n1)c1ncn2c1CCc1ccc(C(F)(F)F)cc1-2
Out: < 50 nM

In: Name the reported IC50 value associated with the compound CC(C)[C@H]1COC(=O)N1c1ccnc(N[C@@H](C)c2ncn3c2CSc2cc(C(F)(F)F)ccc2-3)n1
Out: < 50 nM

In: Dear colleague, I am looking for the recorded IC50 of the following compound: CC(C)[C@H]1COC(=O)N1c1ccnc(N[C@@H](C)c2ncn3c2CCc2cc(C(F)(F)F)ccc2-3)n1
Out: < 50 nM

In: Fill blank: measured IC50 of the compound C[C@H](Nc1nccc(N2C(=O)OC3(COC3)[C@@H]2c2ccccc2)n1)c1ncn2c1CCc1cc(C(F)(F)F)ccc1-2 is ____.
Out: < 50 nM

In: Would you kindly share the measured IC50 for C[C@H](Nc1nccc(N2C(=O)OC[C@@H]2[C@H](C)F)n1)c1ncn2c1CSc1cc(C(F)(F)F)ccc1-2 ?
Out: < 50 nM

---

target: IDH1 R132H (Homo sapiens, UniProt O75874, R132H); assay: Effect on IDH1 R132H enzyme activity (NADPH consumption, diaphorase/resazurin fluorescence); settings: 100 ng IDH1 R132H, α-KG 1 mM, NADPH 20 μM, 60 min preincubation
Sequence (O75874 whole entry R132H): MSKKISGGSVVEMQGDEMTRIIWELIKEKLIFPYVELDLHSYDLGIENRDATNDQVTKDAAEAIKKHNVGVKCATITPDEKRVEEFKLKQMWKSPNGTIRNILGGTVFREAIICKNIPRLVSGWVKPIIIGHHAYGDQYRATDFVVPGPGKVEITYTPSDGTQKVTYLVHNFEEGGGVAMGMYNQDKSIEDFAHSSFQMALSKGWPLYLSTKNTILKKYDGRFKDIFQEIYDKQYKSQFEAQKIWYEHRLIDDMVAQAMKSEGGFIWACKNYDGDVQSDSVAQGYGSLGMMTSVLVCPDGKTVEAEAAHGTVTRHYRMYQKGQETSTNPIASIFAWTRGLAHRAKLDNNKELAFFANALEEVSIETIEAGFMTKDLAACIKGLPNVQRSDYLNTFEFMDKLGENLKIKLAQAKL
Each record here notes measured IC50.

Consider the following illustrative entries.
Compound	Meas Value
CC(C)[C@@H]1N(c2ccnc(N[C@@H](C)c3ncn4c3CCc3cc(C(F)(F)F)ccc3-4)n2)C(=O)OC1(C)C [Compound 18]	50 to 500 nM
C[C@H](Nc1nccc(N2C(=O)OC[C@@H]2[C@H](C)F)n1)c1ncn2c1COc1cc(C(F)(F)F)ccc1-2 [Compound 2]	< 50 nM
C[C@H](Nc1nccc(N2C(=O)OC[C@@H]2[C@H](C)F)n1)c1ncn2c1CCc1cc(Cl)ccc1-2 [Compound 4]	< 50 nM

Proceeding to the next compound to report its IC50.
In: Give recorded IC50 with IDH1 R132H (Homo sapiens, UniProt O75874, R132H) for the following compound: C[C@H](Nc1ncc(F)c(N2C(=O)OC[C@@H]2[C@H](C)F)n1)c1ncn2c1CCc1cc(C(F)(F)F)ccc1-2 [Compound 6]
Out: < 50 nM

---

biological target: IDH1 R132C (Homo sapiens, UniProt O75874, R132C); experiment: Effect on IDH1 R132C enzyme activity (NADPH consumption, diaphorase/resazurin fluorescence); settings: 80 ng IDH1 R132C, α-KG 2 mM, NADPH 20 μM, 60 min preincubation
pIC50: −log10 of the molar value.
Quantity: pIC50

Consider the following illustrative entries.
Compound	pIC50
C[C@H](Nc1nccc(N2C(=O)OC[C@@H]2[C@H](C)F)n1)c1ncn2c1COc1cc(C3CC3)ccc1-2 [Compound 26]	> 7.30
C[C@H](Nc1ncc(F)c(N2C(=O)OC[C@@H]2[C@H](C)F)n1)c1ncn2c1CCc1cc(C(F)(F)F)ccc1-2 [Compound 6]	> 7.30
COc1ccc2c(c1)OCc1c([C@H](C)Nc3nccc(N4C(=O)OC[C@@H]4[C@H](C)F)n3)ncn1-2 [Compound 25]	6.30 to 7.30

Here's the next entry for you.
In: Reported pIC50 for IDH1 R132C (Homo sapiens, UniProt O75874, R132C), given C[C@H](Nc1nc(Cl)cc(N2C(=O)OC[C@@H]2[C@H](C)F)n1)c1ncn2c1CCc1cc(C(F)(F)F)ccc1-2 [Compound 7] ?
Out: > 7.30

---

Measured IC50 by item
Target: IDH1 R132H (Homo sapiens, UniProt O75874, R132H)
Assay: Effect on IDH1 R132H enzyme activity (NADPH consumption, diaphorase/resazurin fluorescence)
Details: 100 ng IDH1 R132H, α-KG 1 mM, NADPH 20 μM, 60 min preincubation
Method: Test method: The enzyme activity of IDH1 converting α-KG to 2HG was measured by the consumption of NADPH. After the enzymatic reaction finished, the amount of residual NADPH can be reflected by fluorescence signal generated by the addition of catalytically excessive diphhorase and reazurin. 50 μL mixed liquid of substrate α-KG and NADPH (final concentration of substrate α-KG was 1 mM, final concentration of NADPH was 20 μM), and the mixture was incubated in dark for 60 min at room temperature. […]

Below, 2 molecules whose answers are already recorded.
Structure Notation	IC50
CC(C)[C@H]1COC(=O)N1c1ccnc(N[C@@H](C)c2ncn3c2CSc2cc(C(F)(F)F)ccc2-3)n1	< 50 nM
C[C@H](Nc1nccc(N2C(=O)OC[C@@H]2[C@H](C)F)n1)c1ncn2c1COc1cc(Cl)ccc1-2	< 50 nM

In: Value lookup for IC50; key = CC(C)[C@H]1COC(=O)N1c1ccnc(N[C@@H](C)c2ncn3c2CCc2cc(C(F)(F)F)ccc2-3)n1
Out: < 50 nM

In: Fill blank: measured IC50 of the molecule C[C@H](Nc1nccc(N2CC3(CC3)OC2=O)n1)c1ncn2c1CCc1cc(C(F)(F)F)ccc1-2 is ____.
Out: > 500 nM

---

Measured pIC50, listed per entry.
biological target: IDH1 R132C (Homo sapiens, UniProt O75874, R132C); test: Effect on IDH1 R132C enzyme activity (NADPH consumption, diaphorase/resazurin fluorescence); details: 80 ng IDH1 R132C, α-KG 2 mM, NADPH 20 μM, 60 min preincubation
pIC50: −log10 of the molar value.

See these solved cases before continuing.
Compound	Measured Target	Meas Value
C[C@H](Nc1nccc(N2C(=O)OC[C@@H]2[C@H](C)F)n1)c1ncn2c1CCc1cc(C(F)(F)F)ccc1-2	IDH1 R132C (Homo sapiens, UniProt O75874, R132C)	> 7.30
CC1Oc2cc(C(F)(F)F)ccc2-n2cnc([C@H](C)Nc3nccc(N4C(=O)OC[C@@H]4[C@H](C)F)n3)c21 (stereo partly shown)	IDH1 R132C (Homo sapiens, UniProt O75874, R132C)	6.30 to 7.30
C[C@H](Nc1nccc(N2C(=O)OC[C@@H]2[C@H](C)F)n1)c1ncn2c1CCc1c(Cl)cccc1-2	IDH1 R132C (Homo sapiens, UniProt O75874, R132C)	6.30 to 7.30

Kindly consider the entry below.
In: Would you kindly share the measured pIC50 for C[C@H](Nc1nccc(N2C(=O)OC[C@@H]2[C@H](C)F)n1)c1ncn2c1COc1cc(Cl)ccc1-2 ?
Out: > 7.30

---

molecular target: IDH1 R132H (Homo sapiens, UniProt O75874, R132H); assay: Effect on IDH1 R132H enzyme activity (NADPH consumption, diaphorase/resazurin fluorescence); settings: 100 ng IDH1 R132H, α-KG 1 mM, NADPH 20 μM, 60 min preincubation
pIC50: −log10 of the molar value.
# pIC50 per record follows

Some entries whose results are on file:
Compound	pIC50
C[C@H](Nc1nccc(N2C(=O)OC[C@@H]2[C@H](C)F)n1)c1ncn2c1CSc1cc(C(F)(F)F)ccc1-2	> 7.30
C[C@H](Nc1nccc(N2C(=O)OC[C@@H]2[C@H](C)F)n1)c1ncn2c1sc1cc(C(F)(F)F)ccc12	> 7.30
C[C@H](Nc1nccc(N2C(=O)OC[C@@H]2[C@H](C)F)n1)c1ncn2c1CCc1cc(F)ccc1-2	6.30 to 7.30
CC(C)[C@H]1C(C)OC(=O)N1c1ccnc(N[C@@H](C)c2ncn3c2CCc2cc(C(F)(F)F)ccc2-3)n1 (some centres unmarked)	> 7.30
C[C@H](Nc1nccc(N2C(=O)OC[C@@H]2[C@H](C)F)n1)c1ncn2c1CCc1c(Cl)cccc1-2	> 7.30

In: # lookup: pIC50 of CC(C)[C@H]1COC(=O)N1c1ccnc(N[C@@H](C)c2ncn3c2CCCc2cc(C(F)(F)F)ccc2-3)n1
Out: 6.30 to 7.30

In: Which pIC50 value is on record for C[C@H](Nc1nccc(N2C(=O)OC[C@@H]2[C@H](C)F)n1)c1ncn2c1COc1cc(C3CC3)ccc1-2 ?
Out: > 7.30

In: Could you tell me which pIC50 is on file for C[C@H](Nc1nccc(N2C(=O)OC[C@@H]2[C@H](C)F)n1)c1ncn2c1CCc1ccc(C(F)(F)F)cc1-2 ?
Out: > 7.30
